Experiment: qHTS assay to identify small molecule antagonists of the estrogen receptor beta (ER-beta) signaling pathway - cell viability counter screen (AID 1259382);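 also: HEK293T cells carrying ER-beta-UAS-bla reporter stimulated with estradiol; % is scaled to controls: 0 for no effect and ±100 for the full control effect; nearly all actives have a fitted effect of over 55% in size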
Details: ER-beta-UAS-bla HEK293T viability, CellTiter-Glo luminescence, 16 h; series mostly up to 92.4 µM
Records with an inconclusive call do not appear. The source made the active and inactive calls. Calls follow the shape of the dose curve; as a rule, active = well fitted cell-killing curve with a large enough effect in the repeat runs; inconclusive = weak or mixed curves; inactive = flat fitted curve, though single readings scatter.
measured.parameter: outcome

// known answers, use as guide
molecule="Cn1cc[n+](C)c1 (tested in a mixture with another compound)" measured_parameter=outcome endpoint_value=inactive
molecule=CCC(Br)(CC)C(=O)NC(N)=O measured_parameter=outcome endpoint_value=inactive
molecule="COCC(C)N(C(=O)CCl)c1c(C)csc1C (configuration not stated)" measured_parameter=outcome endpoint_value=inactive
molecule="CC1C(=O)C[C@]2(C(C)C)C[C@H]12 (some centres not stated)" measured_parameter=outcome endpoint_value=inactive
molecule=CCCCN=C=O measured_parameter=outcome endpoint_value=inactive
molecule=O=S(=O)(O)C(F)(F)C(F)(F)C(F)(F)C(F)(F)F measured_parameter=outcome endpoint_value=inactive

Shifting focus to the molecule that follows.
// field: outcome; key: `C=C(C#N)CCC#N` ; value = inactive

----------
Molecular target: Nuclear receptor subfamily 1 group I member 2 (Rattus norvegicus)
Experiment: Rat pregnane X receptor (rPXR) activation by small molecules, qHTS assay (AID 1346983); also: % is scaled to controls: 0 for no effect and ±100 for the full control effect; nearly all actives have a fitted effect of over 20% in size
Conditions: rPXR luciferase reporter cells, One-Glo luminescence, 24 h; hits give high values
Results filed as inconclusive are left out.
Listed below: max activation values for each entry.
Report as a plain number; the unit % is understood.

Sure, the documented max activation for CN1C(=O)C(O)N=C(c2ccccc2)c2cc(Cl)ccc21 (configuration not stated) is -0.547

Please fill in: max activation reported for `ClC=C(Cl)Cl` = -0.508

The measured max activation associated with CCC(COC(=O)c1cc(OC)c(OC)c(OC)c1)(c1ccccc1)N(C)C (configuration not stated) reads -1.12

# max activation (molecule: COCC(C)N(C(=O)CCl)c1c(C)csc1C (configuration not stated) ) is -3.61

Item: `C#CCOC(C(=O)OCCN(C)C)(c1ccccc1)c1ccccc1` | max activation: -6.97

The measured max activation associated with `O=[N+]([O-])C(Br)(CO)CO` reads -5.03

Form: molecule = CC(C)N(CCC(C(N)=O)(c1ccccc1)c1ccccn1)C(C)C (configuration not stated) ; max activation = -7.32

----------
Assay: qHTS RealTime-Glo MT Cell Viability Assay in HEK293 cells - 24 hour (AID 1224886); also: nearly all actives have a fitted effect of over 50% in size
Conditions: RealTime-Glo luminescence; series mostly up to 76.8 µM
Inconclusive results are not listed. The source made the active and inactive calls. The call rests on the fitted dose curve; in most records, active means well fitted cell-killing curve with a large enough effect in the repeat runs; inconclusive means weak or mixed curves, or effect the other way; inactive means flat fitted curve, though single readings scatter.
# valid calls are TRUE (active), FALSE (inactive); nothing else

Solved entries:
chemical_string=C/C=C/C=O class_name=FALSE
chemical_string=COc1cc(Cl)c(OC)cc1Cl class_name=FALSE
chemical_string=C[C@@H]1CC[C@H]2[C@@H](C)C(=O)O[C@@H]3O[C@@]4(C)CC[C@@H]1[C@]32OO4 class_name=FALSE

Enquiry: // param item: `O=C(CCl)c1ccc(Cl)cc1Cl` ; yields the recorded call
Return: TRUE

Enquiry: Entry `C=CC(=O)NCNC(=O)C=C` : call = ?
Return: FALSE

Enquiry: Just curious, what result did `CCCCNP(N)(N)=S` get here?
Return: FALSE

Enquiry: Please let me know the test result on file for `CCCCCCCCOC(=O)c1ccc(C(=O)OCCCCCCCC)c(C(=O)OCCCCCCCC)c1` .
Return: FALSE

----------
Test: qHTS assay to identify small molecule agonists of the TGF-beta/Smad signaling pathway - cell viability counter screen (AID 1346829); also: top concentration of the series differs between compounds; % is scaled to controls: 0 for no effect and ±100 for the full control effect; nearly all actives have a fitted effect of over 45% in size
Details: SBE-bla HEK293T viability, CellTiter-Glo luminescence, 5 h; series mostly up to 76.8 µM
Inconclusive results are not listed. Active and inactive are the calls of the source. Calls follow the shape of the dose curve; as a rule, active = well fitted cell-killing curve with a large enough effect in the repeat runs; inconclusive = weak or mixed curves, or effect the other way; inactive = flat fitted curve, though single readings scatter.
Would you mind answering with one of these outcomes? active, inactive

Worked cases, answers included:
molecule=O=C1C(=O)c2cccc3cccc1c23 class_name=inactive
molecule=O=S(=O)(O)C(F)(F)C(F)(F)C(F)(F)C(F)(F)F class_name=inactive
molecule=O=C(C(Cl)(Cl)Cl)C(Cl)(Cl)Cl class_name=inactive
molecule=N#C/C(N)=C(/N)C#N class_name=inactive

Enquiry: # lookup: test call for `CCCN(CCC)c1c([N+](=O)[O-])cc(S(C)(=O)=O)cc1[N+](=O)[O-]`
Return: inactive

Enquiry: Hey, what did the test say about CC(=O)c1cc2c(cc1C)C(C)(C)C(C)CC2(C)C (stereo unspecified) ?
Return: inactive

Enquiry: Called result for `CCBr`
Return: inactive

Enquiry: Recorded call for `Brc1ccccc1` ?
Return: inactive

Enquiry: Can you look up the reported call for `C=CC(=O)OC` for me?
Return: inactive

Enquiry: Assay result, entry `Nc1ccc(N=Nc2ccc(-c3ccc(N=Nc4c(S(=O)(=O)O)cc5cc(S(=O)(=O)O)c(N=Nc6ccccc6)c(O)c5c4N)cc3)cc2)c(N)c1` — outcome?
Return: inactive

Enquiry: Given `CN(N=O)c1ccc([N+](=O)[O-])cc1` , state the outcome it received in this test.
Return: inactive

Enquiry: Would you mind telling me which call this test gave `O=C(OC1CCCCC1)c1ccccc1C(=O)OC1CCCCC1` ?
Return: inactive

Enquiry: Identify the outcome logged in this assay for the molecule shown: `Oc1ccc(Cl)c(Cl)c1Cl`
Return: inactive

Enquiry: Record request — test call for `CCN(C)N=O`
Return: inactive

Enquiry: Outcome? `COP(=S)(OC)Oc1cc(Cl)c(I)cc1Cl`
Return: inactive

Enquiry: # fetch the recorded call for COC(=O)C(C)N(C(=O)Cc1ccccc1)c1c(C)cccc1C (stereo unspecified) here
Return: inactive

Enquiry: Please state the recorded outcome for this molecule: `N#CCC#N`
Return: inactive

----------
Assay: Caspase-3/7 induction in CHO-K1 cells by small molecules, qHTS assay (AID 1346980); also: % is scaled to controls: 0 for no effect and ±100 for the full control effect; nearly all actives have a fitted effect of over 15% in size
Conditions: CHO-K1 caspase-3/7 induction, Caspase-Glo luminescence, 17 h; series mostly up to 92.4 µM
The source made the active and inactive calls. The call rests on the fitted dose curve; in most records, active means well fitted activation curve with a large enough effect in the repeat runs; inconclusive means weak or mixed curves; inactive means flat fitted curve, though single readings scatter.
measured.parameter: caspase-3/7 activation

compound=CC(C)(C)c1cc([N+](=O)[O-])cc([N+](=O)[O-])c1O measured_parameter="caspase-3/7 activation" endpoint_value=inactive
compound=CCCCCCCCOC(=O)c1ccc(C(=O)OCCCCCCCC)c(C(=O)OCCCCCCCC)c1 measured_parameter="caspase-3/7 activation" endpoint_value=inactive
compound="Cc1c(F)c(F)c(COC(=O)C2C(/C=C(\\Cl)C(F)(F)F)C2(C)C)c(F)c1F (centres undefined)" measured_parameter="caspase-3/7 activation" endpoint_value=inactive
compound=CCCCCCC#N measured_parameter="caspase-3/7 activation" endpoint_value=inactive
compound="CC(C)(C)C(O)C(Oc1ccc(Cl)cc1)n1cncn1 (centres undefined)" measured_parameter="caspase-3/7 activation" endpoint_value=inactive

Noted for `OC(c1ccc(Cl)cc1)(c1ccc(Cl)cc1)c1cccnc1` : its caspase-3/7 activation reads inactive

// recorded caspase-3/7 activation for `ClCc1ccccc1` : inactive

Value of caspase-3/7 activation reported for the compound `II` is inactive

Per the records, this compound ( CCOC(=O)C(Cl)C(C)=O (centres undefined) ) has caspase-3/7 activation equal to inactive

Item: `C=CC(=O)OCCCCO` | caspase-3/7 activation: inactive

----------
Assay: qHTS assay to identify small molecule antagonists of the sonic hedgehog signaling (Shh) pathway (AID 1259369); also: nearly all actives have a fitted effect of over 45% in size
Conditions: NIH/3T3 Gli1-Luc reporter, Shh antagonist, luminescence 24 h; series mostly up to 92.4 µM
Source text: U.S. Tox21 Program National Center for Advancing Translational Sciences [NCATS] NIH Chemical Genomics Center [NCGC] U.S. Environmental Protection Agency [EPA] National Institutes of Environmental Health Sciences [NIEHS] National Toxicology Program [NTP] U.S. Food and Drug Administration [FDA] Tox21 Assay Overview: The sonic hedgehog (Shh) pathway is essential for normal embryonic development. Dysregulation of the Shh pathway can cause severe developmental defects in organs. […]
Results filed as inconclusive are left out. Active and inactive are the calls of the source. Calls follow the shape of the full dose curve.
Outcomes you can answer with include only these: True for active, False for inactive

molecule="CC1C(=O)C[C@]2(C(C)C)C[C@H]12 (some centres undefined)" class_name=False
molecule=CC(C)(C)c1cc([N+](=O)[O-])cc([N+](=O)[O-])c1O class_name=True
molecule=C=CCN1CC[C@]23c4c5ccc(O)c4O[C@H]2C(=O)CC[C@@]3(O)[C@H]1C5 class_name=False
molecule=CCCCN(N=O)C(=N)N[N+](=O)[O-] class_name=True
molecule=Sc1ccccc1Cl class_name=False
molecule=COP(=O)(OC)O/C(=C/Cl)c1cc(Cl)c(Cl)cc1Cl class_name=True

Enquiry: Hello, I am checking results. What call was entered for `CCCCCCC#N` ?
Return: False

Enquiry: Per the records of this test, what outcome belongs to `O=[Se]=O` ?
Return: False

Enquiry: Answer briefly: the call reported for ClCC(Br)CBr (centres undefined) in this assay.
Return: False

Enquiry: Hey, what did the test say about `Cn1sc(Cl)cc1=O` ?
Return: False

Enquiry: Recorded call for CCCCC(CC)COP(=O)(Oc1ccccc1)Oc1ccccc1 (centres undefined) ?
Return: False
